Tested on: DMS-114
method_summary: NCI tumour cell line growth inhibition, 48 h
Calls of active or inactive are those of the source. No stated cut-off is given here; in the data, active = GI50 up to about 1.1 µM and inactive = higher.
quantity_name: GI50

1. Cc1cccc(C(C)(C)C)c1NC(=O)C(=O)Cc1nc2ccccc2s1; > 100 µM (inactive)
2. COc1ccc(Sc2ccccc2N)cc1; 29.8 µM (inactive)
3. COc1ccc2c3c1C(=O)CCC3CO2 (stereo not given); > 100 µM (inactive)
4. CC(=O)NCCCCCCNC(C)=O [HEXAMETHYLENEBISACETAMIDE]; 3860 µM (inactive)
5. Cc1cc(N(CCC#N)CCC#N)ccc1/C=N\c1ccc(C(=O)NN2C(=O)/C(=C/c3ccc(N(CCC#N)CCC#N)cc3)N=C2c2cc([N+](=O)[O-])ccc2Cl)cc1; > 100 µM (inactive)
6. N#C/C(=C/c1cccc(Oc2ccccc2)c1)c1ccccc1; 51.8 µM (inactive)
7. CCn1c2c(n(CC)c1=S)-c1c(n(CC)c(=S)n1CC)SSSS2; 15.8 µM (inactive)
8. C[N+](C)=c1nc(N2CCc3ccccc3C2)ss1.[O-][Cl+3]([O-])([O-])[O-]; 60.1 µM (inactive)
9. Nc1ccc(C(=O)NN2C(=O)C(Cl)C2c2ccccc2Cl)cc1 (stereo not given); 5.48 µM (inactive)
10. C[C@@]12CCCC(=O)N1[C@@H](CO)C(c1ccccc1)O2 (stereo not given in full); > 100 µM (inactive)
